The entries below are paired with their reported EC50.
Biological target: alpha2A receptor (Homo sapiens, UniProt P08913)
Experiment: Alpha2A agonistic activity in vitro
Type: cell-based
Conditions: in vitro; read-out: Alpha2A Agonism pEC50 (converted)
Please state the figure in nM; there is no need to write the unit.

Use the examples below as a reference point.
[[record]]
compound = "Cc1cccc2c1CCSC2(C)C1=NCCN1 (stereo not shown) [Example 78]"
value_measured = 501

[[record]]
compound = "COc1cccc2c1C[C@H](C)OC2C1=NCCN1 (stereo partly shown) [Example 53]"
value_measured = 316

[[record]]
compound = "COc1cc(C)c2c(c1)C(C1=NCCN1)OC(C)C2 (stereo not shown) [Example 85]"
value_measured = 1000

[[record]]
compound = "CC1Cc2c(Br)cccc2C(C)(C2=NCCN2)O1 (stereo not shown) [Example 31]"
value_measured = 1260

[[record]]
compound = "N#Cc1cccc2c1CCOC2C1=NCCN1 (stereo not shown) [Example 5]"
value_measured = 1260

[[record]]
compound = "FC(F)(F)CC1Cc2c(Br)cccc2C(C2=NCCN2)O1 (single isomer, unassigned) [Example 83]"
value_measured = 126

[[record]]
compound = "CC1(C2=NCCN2)OCCc2c(C3CC3)cccc21 (stereo not shown) [Example 24]"
value_measured = 794

[[record]]
compound = "Cc1cccc2c1C[C@@H](C)OC2(C)C1=NCCN1 (stereo partly shown) [Example 23]"
value_measured = 316

[[record]]
compound = "Cc1cccc2c1CC(C)OC2(C)C1=NCCN1 (stereo not shown) [Example 30]"
value_measured = 794

[[record]]
compound = "FC(F)(F)Cc1cccc2c1CCOC2C1=NCCN1 (stereo not shown) [Example 72]"
value_measured = 1580


// c1cc2c3c(c1)C(C1=NCCN1)OCC3CCCC2 (stereo not shown) [Example 57] : EC50 value = 2000

// Oc1cccc2c1CCOC2C1=NCCN1 (stereo not shown) [Example 9] : EC50 value = 200

// COc1cccc2c1C[C@@H](C)OC2(C)C1=NCCN1 (stereo partly shown) [Example 71] : EC50 value = 2000

---

The entries below are paired with their reported EC50.
Target: alpha2A receptor (Homo sapiens, UniProt P08913)
Sequence (P08913 1-465): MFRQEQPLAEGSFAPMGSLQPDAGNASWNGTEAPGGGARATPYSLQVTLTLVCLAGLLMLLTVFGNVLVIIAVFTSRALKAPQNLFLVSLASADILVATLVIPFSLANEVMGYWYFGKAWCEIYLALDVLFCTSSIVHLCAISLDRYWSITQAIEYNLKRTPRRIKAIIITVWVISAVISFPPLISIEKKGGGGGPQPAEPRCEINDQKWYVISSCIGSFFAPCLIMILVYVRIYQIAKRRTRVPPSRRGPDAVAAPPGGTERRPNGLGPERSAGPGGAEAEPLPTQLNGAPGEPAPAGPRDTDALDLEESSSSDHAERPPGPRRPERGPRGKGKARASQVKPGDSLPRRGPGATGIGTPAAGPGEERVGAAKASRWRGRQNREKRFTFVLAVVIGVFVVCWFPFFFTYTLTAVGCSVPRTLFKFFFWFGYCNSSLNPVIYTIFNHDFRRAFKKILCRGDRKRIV
Test: Alpha2A agonistic activity in vitro
Format: cell-based
Details: in vitro; read-out: Alpha2A Agonism pEC50 (converted)
Write the quantity with the unit trailing the number.

Use the examples below as a reference point.
[[record]]
compound = "CC1(C2=NCCN2)OCCc2c(C(O)C(C)(C)C)cccc21 (single isomer, unassigned) [Example 13]"
endpoint = "EC50"
value_measured = "1260 nM"

[[record]]
compound = "Cc1cccc2c1C[C@H](C)OC2C1=NCCN1 (stereo partly drawn)"
endpoint = "EC50"
value_measured = "316 nM"

[[record]]
compound = "COc1cccc2c1CCOC2C1=NCCN1 (stereo not drawn) [Example 17]"
endpoint = "EC50"
value_measured = "25.1 nM"

[[record]]
compound = "CC1Cc2c(Br)cccc2C(C2=NCCN2)S1 (stereo not drawn)"
endpoint = "EC50"
value_measured = "3160 nM"

[[record]]
compound = "COc1cccc2c1CCOC2C1=NCCN1 (single isomer, unassigned) [Example 97]"
endpoint = "EC50"
value_measured = "15.8 nM"

[[record]]
compound = "CC#Cc1cccc2c1CCOC2C1=NCCN1 (stereo not drawn)"
endpoint = "EC50"
value_measured = "126 nM"


// c1cc(-c2ccoc2)c2c(c1)C(C1=NCCN1)OCC2 (stereo not drawn) : EC50 value = 1000 nM

// FC(F)(F)Oc1cccc2c1CCOC2C1=NCCN1 (stereo not drawn) : EC50 value = 398 nM

// CCC1Cc2c(O)cccc2C(C2=NCCN2)O1 (stereo not drawn) : EC50 value = 631 nM

// CC[C@@H]1Cc2c(Cl)cccc2C(C2=NCCN2)O1 (stereo partly drawn) : EC50 value = 1580 nM

// CCCC1Cc2c(Br)cccc2C(C2=NCCN2)O1 (stereo not drawn) : EC50 value = 316 nM

// Cc1cccc2c1CCOC2(C)C1=NCCN1 (single isomer, unassigned) : EC50 value = 1000 nM

// CCc1cccc2c1CCOC2C1=NCCN1 (single isomer, unassigned) : EC50 value = 251 nM

// COCC1Cc2c(C)cccc2C(C2=NCCN2)O1 (stereo not drawn) : EC50 value = 794 nM

// CCc1cccc2c1C[C@@H](C)OC2(C)C1=NCCN1 (stereo partly drawn) : EC50 value = 1580 nM

---

Molecular target: alpha2A receptor (Homo sapiens)
Sequence (P08913 1-465): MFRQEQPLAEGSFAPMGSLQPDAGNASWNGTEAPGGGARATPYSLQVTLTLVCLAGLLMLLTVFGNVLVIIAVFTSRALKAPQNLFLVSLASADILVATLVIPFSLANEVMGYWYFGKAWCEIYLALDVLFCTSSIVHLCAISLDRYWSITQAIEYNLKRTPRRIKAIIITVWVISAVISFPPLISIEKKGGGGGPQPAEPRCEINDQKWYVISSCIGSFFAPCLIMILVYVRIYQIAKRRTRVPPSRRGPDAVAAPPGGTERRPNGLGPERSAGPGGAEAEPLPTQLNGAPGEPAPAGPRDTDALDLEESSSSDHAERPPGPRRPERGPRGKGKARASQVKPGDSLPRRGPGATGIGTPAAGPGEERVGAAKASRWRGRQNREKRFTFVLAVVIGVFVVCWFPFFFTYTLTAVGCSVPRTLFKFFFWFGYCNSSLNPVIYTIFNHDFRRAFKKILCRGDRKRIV
Assay: Alpha2A agonistic activity in vitro
Assay type: cell-based
Details: in vitro
Endpoint: Alpha2A Intrinsic Activity
Answer using only a numeral; do not append any unit.

[[record]]
molecule = "CC#Cc1cccc2c1CCOC2C1=NCCN1 (stereo not shown)"
endpoint = "Alpha2A Intrinsic Activity"
value_measured = 0.80

[[record]]
molecule = "C[C@@H]1Cc2c(OC(F)(F)F)cccc2C(C2=NCCN2)O1 (stereo partly shown)"
endpoint = "Alpha2A Intrinsic Activity"
value_measured = 0.35

[[record]]
molecule = "OCc1cccc2c1CCOC2C1=NCCN1 (stereo not shown)"
endpoint = "Alpha2A Intrinsic Activity"
value_measured = 0.90


Read the next record carefully.
// CCc1cccc2c1CCOC2C1=NCCN1 (single isomer, unassigned) [Example 96] : Alpha2A Intrinsic Activity value = 0.66

---

Target: alpha2A receptor (Homo sapiens, UniProt P08913)
Sequence (P08913 1-465): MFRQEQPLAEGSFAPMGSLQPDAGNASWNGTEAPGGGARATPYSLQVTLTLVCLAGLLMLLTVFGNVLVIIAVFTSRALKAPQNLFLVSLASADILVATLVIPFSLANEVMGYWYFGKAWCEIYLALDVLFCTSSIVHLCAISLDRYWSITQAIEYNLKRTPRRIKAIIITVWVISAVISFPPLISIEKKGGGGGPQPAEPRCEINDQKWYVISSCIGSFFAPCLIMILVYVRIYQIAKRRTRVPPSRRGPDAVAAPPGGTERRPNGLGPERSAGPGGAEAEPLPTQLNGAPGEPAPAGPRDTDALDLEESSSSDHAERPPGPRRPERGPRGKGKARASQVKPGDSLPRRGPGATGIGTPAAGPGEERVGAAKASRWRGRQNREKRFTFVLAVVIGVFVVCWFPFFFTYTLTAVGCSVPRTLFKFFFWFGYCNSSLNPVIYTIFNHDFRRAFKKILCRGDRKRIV
Assay: Alpha2A agonistic activity in vitro
Assay type: cell-based
Details: Alpha2A Agonism pEC50, in vitro
Endpoint: EC50 (nM)
Please state the figure in nM; there is no need to write the unit.

Use the examples below as a reference point.
[[record]]
compound = "Cc1cccc2c1CCSC2C1=NCCN1 (centres unmarked)"
endpoint = "EC50"
value_measured = 79.4

[[record]]
compound = "CC1(C2=NCCN2)OCc2cccc3cccc1c23 (single isomer, unassigned) [Example 103]"
endpoint = "EC50"
value_measured = 6.31

[[record]]
compound = "OCc1cccc2c1CCOC2C1=NCCN1 (centres unmarked)"
endpoint = "EC50"
value_measured = 20


Value (EC50, alpha2A receptor (Homo sapiens, UniProt P08913)) for record Brc1cccc2c1CCOC2C1=NCCN1 (centres unmarked) [Example 2] = 15.8

Value (EC50, alpha2A receptor (Homo sapiens, UniProt P08913)) for record CCC1Cc2c(C)cccc2C(C2=NCCN2)O1 (centres unmarked) = 25.1

Value (EC50, alpha2A receptor (Homo sapiens, UniProt P08913)) for record CC1OC(C2=NCCN2)c2cccc3cccc1c23 (centres unmarked) = 3.16

Value (EC50, alpha2A receptor (Homo sapiens, UniProt P08913)) for record CCC1OC(C2=NCCN2)c2cccc3cccc1c23 (centres unmarked) = 39.8

Value (EC50, alpha2A receptor (Homo sapiens, UniProt P08913)) for record C[C@H]1Cc2c(Br)cccc2C(C2=NCCN2)O1 (some centres unmarked) = 15.8
